assay: viability profiling in RPMI8226 myeloma cells – cell-based, resazurin fluorescence, basal, 24 h, PK04 Diversity Set, profiling panel (AID 1180); conditions: higher = more signal;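 note: RPMI8826 multiple myeloma cell line at 5000 cells per well; test concentration not given here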
Provide the recorded z-score for the entries that follow.
Please give only the number in your answer, with no unit.

## Task I would be grateful if you could share the reported z-score for O=C(NCc1ccccc1)[C@@H]1c2ccccc2C(=O)N(Cc2cc(C(F)(F)F)cc(C(F)(F)F)c2)[C@H]1c1ccc(CO)cc1 .
## Result 1.03

## Task I would be grateful if you could share the reported z-score for CN(C)CCCC[C@@H]1NC(=O)[C@@H]2C[C@H](C(=O)NCCCCCCNC(=O)CS)[C@H](c3ccc(O)cc3)N2C1=O .
## Result 0.0875

## Task I would be grateful if you could share the reported z-score for CC(C)=CCCC(C)=CC(O)C1C=CC2C(=O)NC(=O)C2N1Nc1ccc(Cl)cc1Cl (configuration not stated) .
## Result -1.73

## Task I would be grateful if you could share the reported z-score for Cc1ccc(C(C)CC(O)C2C=CC3C(=O)N(C)C(=O)C3N2Nc2ccccc2)o1 (configuration not stated) .
## Result -0.874

## Task I would be grateful if you could share the reported z-score for COC(=O)C(CC#Cc1ccc2c(c1)[C@]1(C(=O)N2)[C@H](C(=O)NC[C@H](O)c2ccccc2)[C@H]2C(=O)O[C@H](c3ccccc3)[C@H](c3ccccc3)N2[C@@H]1c1ccccc1OCCO)C(=O)OC .
## Result -6.76

## Task I would be grateful if you could share the reported z-score for C=CCC(OC(C)=O)[C@@H]1[C@@H](N(Cc2ccc(-c3cccc(C(F)(F)F)c3)o2)C(=O)Cc2ccc(F)cc2)c2cc(OCCCO)ccc2N1C(=O)Cc1ccc2ccccc2c1 (some centres not stated) .
## Result 0.0748

## Task I would be grateful if you could share the reported z-score for CCCCC(O)C1C=CC2C(=O)N(c3ccccc3)C(=O)C2N1Nc1ccccc1 (configuration not stated) .
## Result -0.0096

## Task I would be grateful if you could share the reported z-score for O=C1O[C@H](Cc2ccccc2)[C@@H]2[C@H]3C=CCCC=C3CN2[C@H]1Cc1ccc(O)cc1 .
## Result -0.095

## Task I would be grateful if you could share the reported z-score for C=CCC(OC(C)=O)[C@@H]1[C@@H](N(Cc2cccc3ccccc23)C(=O)Cc2ccc(OC)cc2)c2cc(OCCCO)ccc2N1C(=O)c1ccc2ccccc2c1 (some centres not stated) .
## Result 1.17

## Task I would be grateful if you could share the reported z-score for COCCOC(=O)N1C(=O)[C@@]2(c3cc(C#CCC(C(=O)OC)C(=O)OC)ccc31)[C@H](c1ccc(O)cc1)N1[C@H](c3ccccc3)[C@H](c3ccccc3)OC(=O)[C@H]1[C@@H]2C(=O)Nc1nc2ccccc2s1 .
## Result -0.157

## Task I would be grateful if you could share the reported z-score for O=C1OCCC=C[C@H]2OC34C=CCN(c5ccc6ccccc6c5)C(=O)[C@H]3N(CCO)C(=O)[C@@H]4C12 (some centres not stated) .
## Result -0.796

## Task I would be grateful if you could share the reported z-score for Cc1ccc(S[C@]2(C(=O)NCC(F)(F)F)CC(=O)N(Cc3ccccc3C(F)(F)F)[C@@H]2c2ccc(CO)cc2)cc1 .
## Result -0.754

## Task I would be grateful if you could share the reported z-score for CCCC#C[Si](O[C@H](CC)c1cn(Cc2ccccc2)nn1)(C(C)C)C(C)C .
## Result -0.754

## Task I would be grateful if you could share the reported z-score for COCCCNC(=O)[C@@H]1c2ccccc2C(=O)N(Cc2ccc(OC(F)(F)F)cc2)[C@H]1c1ccc(CO)cc1 .
## Result 0.116

## Task I would be grateful if you could share the reported z-score for [N-]=[N+]=Nc1ccccc1[C@@H]1OC(c2ccc(OCCCO)cc2)=N[C@]1(Cc1ccccc1)C(=O)NCCN1CCOCC1 .
## Result -1.73

## Task I would be grateful if you could share the reported z-score for CCOc1cc(C(O)C2C=CC3C(=O)N(c4ccccc4)C(=O)C3N2Nc2ccccc2F)ccc1O (configuration not stated) .
## Result -0.318

## Task I would be grateful if you could share the reported z-score for COC(=O)c1cccc([C@H]2OC(=CC(=O)OC(C)C)C[C@@H](c3cccc(C(=O)OC)c3)O2)c1 .
## Result 0.0732

## Task I would be grateful if you could share the reported z-score for COC(=O)[C@@]1(Cc2ccc(F)cc2)[C@H]2c3cc(C(=O)N4CCCC4)n(Cc4cc(F)cc5c4OCOC5)c3C[C@H]2CN1C(=O)c1ccccc1 .
## Result -2.88

## Task I would be grateful if you could share the reported z-score for COc1ccc([Si](C)(C)[C@H]2[C@H](CCO)O[C@@]3(C(=O)N(Cc4cccc(N5C(=O)c6ccccc6Oc6ccccc65)c4)c4ccccc43)[C@@H]2C)cc1 .
## Result -4.05

## Task I would be grateful if you could share the reported z-score for COCCOC(=O)N1C(=O)[C@@]2(c3ccccc31)[C@H](c1ccc(O)cc1)N1[C@H](c3ccccc3)[C@H](c3ccccc3)OC(=O)[C@H]1[C@@H]2C(=O)N1CCCCCCC1 .
## Result 0.248

## Task I would be grateful if you could share the reported z-score for COCCOC(=O)N1C(=O)[C@@]2(c3cc(C#CCNC(N)=O)ccc31)[C@H](C(=O)Nc1nc3ccccc3s1)[C@H]1C(=O)O[C@H](c3ccccc3)[C@H](c3ccccc3)N1[C@@H]2c1ccccc1OCCO .
## Result -1.01

## Task I would be grateful if you could share the reported z-score for C[N+](C)(C)CCCC[C@@H]1NC(=O)[C@H]2C[C@@H](C(=O)NCCCCCNC(=O)CS)[C@@H](c3cccc(OCCO)c3)N2C1=O .
## Result 0.401

## Task I would be grateful if you could share the reported z-score for [N-]=[N+]=Nc1ccccc1C[C@]1(C(=O)N2CCOCC2)N=C(c2ccc(OCCCO)cc2)O[C@H]1c1ccccc1N=[N+]=[N-] .
## Result -2.65

## Task I would be grateful if you could share the reported z-score for CO[C@H]1O[C@H](CO)[C@@H](OC(=O)Nc2ccccc2-c2ccccc2)[C@H](OC(=O)Nc2ccccc2)[C@H]1OC(=O)Nc1ccccc1 .
## Result -2.06

## Task I would be grateful if you could share the reported z-score for COc1ccc(C(=O)Nc2cccc(CN3C(=O)[C@@]4(O[C@@H](CC(=O)N5CCC[C@H]5CO)[C@H]([Si](C)(C)c5ccc(OC)cc5)[C@H]4C)c4ccccc43)c2)cc1 .
## Result -1.25

## Task I would be grateful if you could share the reported z-score for C=C(CCCC)/C(=C/C[C@@H](OC(C)=O)c1ccc(CO)o1)c1cnc2ccccc2c1 .
## Result -0.521

## Task I would be grateful if you could share the reported z-score for CC(C)N1C(=O)c2ccccc2[C@@H](C(=O)NCC(F)(F)F)[C@@H]1c1ccc(CO)cc1 .
## Result 0.236

// data source = PubChem BioAssay
